system: H9c2; assay: cells; assay type: functional, cell-based; conditions: Rattus norvegicus, H9c2, Myocardium;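 note: cell death induced by hydrogen peroxide oxidative stress; compound pretreatment for 60 min then peroxide exposure for 2 h; potency is for protecting the cells against peroxide damage rather than for killing them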;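 note: confirmatory concentration-response retest of ultra-high-throughput screening hits for modulation of myocardial damage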
Active and inactive are the calls of the source.
Form entry, call: pick from active, inactive

-- ask Dear colleague, could you share the recorded outcome for `CCCN(CCC)S(=O)(=O)c1ccc(C(=O)Nc2nnc(-c3cc(OC)cc(OC)c3)o2)cc1` when you have a moment?
-- reply inactive

-- ask Dear colleague, could you share the recorded outcome for `CN(C)S(=O)(=O)n1cc(/C=C(\NC(=O)c2ccccc2F)C(=O)NCCN2CCOCC2)c2ccccc21` when you have a moment?
-- reply inactive

-- ask Dear colleague, could you share the recorded outcome for O=C(CN1C(=O)C2CC=CCC2C1=O)Nc1nc(-c2ccc(F)c(F)c2)cs1 (stereo unspecified) when you have a moment?
-- reply inactive

-- ask Dear colleague, could you share the recorded outcome for `CCOC(=O)N1CCc2c(sc(NC(=O)CN3CCOCC3)c2C(=O)Nc2ccccc2)C1` when you have a moment?
-- reply active

-- ask Dear colleague, could you share the recorded outcome for `CCN1CCN(c2nc(O)c3c(n2)CCCC3)CC1` when you have a moment?
-- reply inactive

As a next step, examine the compound that follows.
-- ask Dear colleague, could you share the recorded outcome for `Fc1ccc(-c2ccc(-c3nn4c(-c5ccco5)nnc4s3)o2)cc1` when you have a moment?
-- reply inactive

====

In this section we review reported AC50 values for a set of compounds.
target: Cytochrome P450 2C19 (Homo sapiens); assay: Cytochrome panel assay with activity outcomes. Panel member name: p450-cyp2c19 Compounds with AC50 equal or less than 10 uM are considered active; assay type: functional; settings: read-out: AC50
Sequence (P33261 whole entry): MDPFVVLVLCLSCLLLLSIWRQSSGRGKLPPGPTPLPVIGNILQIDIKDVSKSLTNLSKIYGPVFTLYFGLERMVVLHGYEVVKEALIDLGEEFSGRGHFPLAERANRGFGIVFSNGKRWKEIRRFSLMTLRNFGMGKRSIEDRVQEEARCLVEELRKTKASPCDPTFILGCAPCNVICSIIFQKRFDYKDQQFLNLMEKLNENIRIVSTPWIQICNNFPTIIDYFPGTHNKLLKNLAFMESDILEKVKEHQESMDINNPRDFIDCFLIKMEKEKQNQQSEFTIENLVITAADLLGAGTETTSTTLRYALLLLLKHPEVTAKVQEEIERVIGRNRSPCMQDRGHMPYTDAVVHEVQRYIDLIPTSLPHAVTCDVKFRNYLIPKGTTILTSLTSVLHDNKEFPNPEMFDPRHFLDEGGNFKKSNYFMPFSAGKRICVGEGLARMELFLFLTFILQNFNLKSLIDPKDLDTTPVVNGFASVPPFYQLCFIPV

Consider the worked cases shown below.
-- ask Requested read-out AC50, target or system Cytochrome P450 2C19 (Homo sapiens), entry `CN1C(=O)C(=C(N)COc2ccccc2)C(=O)N(C)C1=O`
-- reply 15.8 µM (inconclusive)

-- ask Requested read-out AC50, target or system Cytochrome P450 2C19 (Homo sapiens), entry `NCCSCCc1ccccc1`
-- reply 3.16 µM (inconclusive)

-- ask Requested read-out AC50, target or system Cytochrome P450 2C19 (Homo sapiens), entry `CC(=O)c1cccc(NC(=O)Cc2ccc3c(c2)CCCC3)c1`
-- reply 3.16 µM (inconclusive)

-- ask Requested read-out AC50, target or system Cytochrome P450 2C19 (Homo sapiens), entry `Cn1c(=O)c(CCc2ccccc2)nc2cncnc21`
-- reply 39.8 µM (inconclusive)

-- ask Requested read-out AC50, target or system Cytochrome P450 2C19 (Homo sapiens), entry COc1cccc(C2=NOC(C(=O)NCc3ccccn3)C2)c1 (stereo not drawn)
-- reply 25.1 µM (inconclusive)

More entries:
-- ask Requested read-out AC50, target or system Cytochrome P450 2C19 (Homo sapiens), entry `c1ccc(-c2csc3ncn4cnnc4c23)cc1`
-- reply 11.2 µM (inconclusive)

-- ask Requested read-out AC50, target or system Cytochrome P450 2C19 (Homo sapiens), entry `COc1cccc(Cn2c(=O)c(-c3ccccc3)nc3cnc(N4CCNCC4)nc32)c1`
-- reply 39.8 µM (inconclusive)

-- ask Requested read-out AC50, target or system Cytochrome P450 2C19 (Homo sapiens), entry `COc1cc2c(cc1OC)-c1c/c(=N/c3c(C)cc(C)cc3C)n(C)c(=O)n1CC2`
-- reply 31.6 µM (inconclusive)

====

molecular target: Corticotropin-releasing factor receptor 2/Corticotropin-releasing factor-binding protein (Homo sapiens, UniProt P24387+Q13324); assay: Dose Response confirmation of uHTS hits for small molecule antagonists of the CRF-binding protein and CRF-R2 receptor complex.; assay type: functional; details: read-out: IC50_Mean
Sequence (Q13324 whole entry): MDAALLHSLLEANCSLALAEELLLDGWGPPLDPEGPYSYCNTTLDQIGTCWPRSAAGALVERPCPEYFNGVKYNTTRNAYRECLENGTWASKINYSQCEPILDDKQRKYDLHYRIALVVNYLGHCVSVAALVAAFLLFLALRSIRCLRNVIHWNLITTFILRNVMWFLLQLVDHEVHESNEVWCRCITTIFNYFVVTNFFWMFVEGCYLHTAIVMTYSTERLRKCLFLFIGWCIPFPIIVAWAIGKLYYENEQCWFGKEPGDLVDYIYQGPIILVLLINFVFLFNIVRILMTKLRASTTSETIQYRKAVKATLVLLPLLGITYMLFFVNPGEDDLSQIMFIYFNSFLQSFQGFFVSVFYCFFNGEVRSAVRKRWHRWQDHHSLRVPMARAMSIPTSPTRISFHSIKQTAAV
Sequence (P24387 whole entry): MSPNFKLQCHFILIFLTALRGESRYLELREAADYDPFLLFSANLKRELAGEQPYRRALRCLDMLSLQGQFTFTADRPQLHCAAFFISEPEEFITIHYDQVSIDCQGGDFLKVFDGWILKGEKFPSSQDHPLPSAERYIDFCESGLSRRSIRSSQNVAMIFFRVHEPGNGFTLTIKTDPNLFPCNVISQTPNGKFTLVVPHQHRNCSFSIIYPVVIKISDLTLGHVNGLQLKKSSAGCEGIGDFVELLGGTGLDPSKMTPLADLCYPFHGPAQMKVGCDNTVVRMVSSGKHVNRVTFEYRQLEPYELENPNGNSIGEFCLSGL
Calls of active or inactive are those of the source.
Form entry, call: pick from active, inactive

Reference set (5 entries):
-- ask Dear colleague, could you share the recorded outcome for Cc1ccc(S(=O)(=O)N2c3ccccc3OCC2C(C)(C)C)cc1 (centres undefined) when you have a moment?
-- reply inactive

-- ask Dear colleague, could you share the recorded outcome for CC(CCc1ccco1)NC(=O)CCc1nnc2ccc(NCc3ccccc3)nn12 (centres undefined) when you have a moment?
-- reply inactive

-- ask Dear colleague, could you share the recorded outcome for CCN(Cc1ccccc1)C(c1cccc(C#N)c1)c1nnnn1C(C)(C)C (centres undefined) when you have a moment?
-- reply active

-- ask Dear colleague, could you share the recorded outcome for `Brc1ccc(-c2noc(CCc3ccccc3)n2)o1` when you have a moment?
-- reply inactive

-- ask Dear colleague, could you share the recorded outcome for Cc1c(C(=O)N2CC(C(=O)N3CCCCC3)Oc3ccccc32)oc2ccccc12 (centres undefined) when you have a moment?
-- reply inactive

More entries:
-- ask Dear colleague, could you share the recorded outcome for `COc1ccc(-c2noc(C(=O)NCc3ccc(F)cc3)n2)cc1OC` when you have a moment?
-- reply inactive

-- ask Dear colleague, could you share the recorded outcome for `NC(=NOC(=O)COc1ccc(Br)cc1)c1ccncc1` when you have a moment?
-- reply inactive

-- ask Dear colleague, could you share the recorded outcome for `CCOC(=O)c1cn2nc(Oc3cccc(F)c3)ccc2n1` when you have a moment?
-- reply inactive

-- ask Dear colleague, could you share the recorded outcome for CCOc1ccccc1N1CCN(C(=O)C2CSC3(C)CCC(=O)N23)CC1 (centres undefined) when you have a moment?
-- reply inactive

====

In this section we review reported IC50 values for a set of compounds.
biological target: SUMO-activating enzyme (Homo sapiens, UniProt Q9UBT2); assay: blockers of UBC9-mediated SUMO conjugation – biochemical, AlphaScreen, SUMOylation inhibitor project, confirmation (AID 2018); format: functional
Sequence (Q9UBE0 whole entry): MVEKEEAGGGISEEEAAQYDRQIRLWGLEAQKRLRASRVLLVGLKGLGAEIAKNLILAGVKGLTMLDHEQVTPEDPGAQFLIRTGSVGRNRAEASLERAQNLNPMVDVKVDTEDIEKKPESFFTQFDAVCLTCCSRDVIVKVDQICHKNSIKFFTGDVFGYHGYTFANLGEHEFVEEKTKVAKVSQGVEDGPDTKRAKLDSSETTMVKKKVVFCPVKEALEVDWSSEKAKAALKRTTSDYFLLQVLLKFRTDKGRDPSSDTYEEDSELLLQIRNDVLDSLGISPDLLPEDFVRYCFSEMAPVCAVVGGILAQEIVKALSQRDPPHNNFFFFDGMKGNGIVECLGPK
Sequence (Q9UBT2 whole entry): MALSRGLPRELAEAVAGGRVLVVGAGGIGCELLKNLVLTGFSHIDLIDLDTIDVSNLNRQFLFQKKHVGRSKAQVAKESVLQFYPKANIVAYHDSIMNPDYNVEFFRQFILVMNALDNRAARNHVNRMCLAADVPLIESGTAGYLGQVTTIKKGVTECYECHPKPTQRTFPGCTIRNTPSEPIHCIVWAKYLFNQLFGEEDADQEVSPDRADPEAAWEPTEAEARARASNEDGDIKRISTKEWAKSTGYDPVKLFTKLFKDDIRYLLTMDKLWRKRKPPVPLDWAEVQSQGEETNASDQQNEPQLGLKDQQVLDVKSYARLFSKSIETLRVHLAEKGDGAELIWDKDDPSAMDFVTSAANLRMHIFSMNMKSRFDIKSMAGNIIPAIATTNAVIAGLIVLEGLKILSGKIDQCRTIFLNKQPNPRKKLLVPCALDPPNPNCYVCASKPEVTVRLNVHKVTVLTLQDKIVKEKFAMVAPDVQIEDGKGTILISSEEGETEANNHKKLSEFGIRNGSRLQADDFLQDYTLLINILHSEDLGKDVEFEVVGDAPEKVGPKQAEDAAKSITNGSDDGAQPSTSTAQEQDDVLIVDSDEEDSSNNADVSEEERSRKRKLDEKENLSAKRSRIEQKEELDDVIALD
Calls of active or inactive are those of the source.

Consider the worked cases shown below.
-- ask Requested read-out IC50, target or system SUMO-activating enzyme (Homo sapiens, UniProt Q9UBT2), entry Cc1ccc(C2=NN(C(=O)CCC(=O)O)C(c3cn(-c4ccccc4)nc3-c3ccc(C)cc3)C2)cc1 (centres undefined)
-- reply 4.8 µM (active)

-- ask Requested read-out IC50, target or system SUMO-activating enzyme (Homo sapiens, UniProt Q9UBT2), entry `O=C(N/N=C/c1ccc(-c2cccc([N+](=O)[O-])c2)o1)c1ccccc1O`
-- reply 16.3 µM (active)

-- ask Requested read-out IC50, target or system SUMO-activating enzyme (Homo sapiens, UniProt Q9UBT2), entry `O=C(N/N=C/c1ccc([N+](=O)[O-])o1)c1cc2c(ccc3ccccc32)o1`
-- reply 28.4 µM (active)

Now let's try a different one.
-- ask Requested read-out IC50, target or system SUMO-activating enzyme (Homo sapiens, UniProt Q9UBT2), entry `CN(C)c1cc(Cl)c2nonc2c1N`
-- reply 2.7 µM (active)

====

test system: INS1; test: INS-1E survival protection against cytokine death – cell-based, luminescence, retest, dose response (AID 449756); assay type: functional; conditions: Rattus norvegicus;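 note: cell death triggered by IL-1 beta plus TNF-alpha plus IFN-gamma mixture; protective hits raise ATP signal compared with cytokine alone wells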
The source made the active and inactive calls.
Form entry, call: pick from yes (active), no (inactive)

-- ask Dear colleague, could you share the recorded outcome for `C=CCN1C(=O)N/C(=C/c2ccc(N3CCOCC3)o2)C1=O` when you have a moment?
-- reply no

-- ask Dear colleague, could you share the recorded outcome for `COC(=O)[C@H](CC(C)C)N(Cc1ccccc1)S(=O)(=O)N(Cc1ccccc1)[C@@H](CC(C)C)C(=O)OC` when you have a moment?
-- reply yes

-- ask Dear colleague, could you share the recorded outcome for C#CC(=O)N(c1cccc(OC)c1)C(C(=O)NC1CCCC1)c1cccs1 (stereo not given) when you have a moment?
-- reply yes

-- ask Dear colleague, could you share the recorded outcome for N#CC(c1cccc(Cl)c1)c1ccc2c(C(F)(F)F)cc(C(F)(F)F)nc2n1 (stereo not given) when you have a moment?
-- reply yes

As a next step, examine the compound that follows.
-- ask Dear colleague, could you share the recorded outcome for `Cc1nc2c(=O)n(C)c(=O)nc-2n(C)n1` when you have a moment?
-- reply yes

====

Target: Histone-lysine N-methyltransferase NSD2 (Homo sapiens, UniProt O96028)
Sequence (O96028 whole entry): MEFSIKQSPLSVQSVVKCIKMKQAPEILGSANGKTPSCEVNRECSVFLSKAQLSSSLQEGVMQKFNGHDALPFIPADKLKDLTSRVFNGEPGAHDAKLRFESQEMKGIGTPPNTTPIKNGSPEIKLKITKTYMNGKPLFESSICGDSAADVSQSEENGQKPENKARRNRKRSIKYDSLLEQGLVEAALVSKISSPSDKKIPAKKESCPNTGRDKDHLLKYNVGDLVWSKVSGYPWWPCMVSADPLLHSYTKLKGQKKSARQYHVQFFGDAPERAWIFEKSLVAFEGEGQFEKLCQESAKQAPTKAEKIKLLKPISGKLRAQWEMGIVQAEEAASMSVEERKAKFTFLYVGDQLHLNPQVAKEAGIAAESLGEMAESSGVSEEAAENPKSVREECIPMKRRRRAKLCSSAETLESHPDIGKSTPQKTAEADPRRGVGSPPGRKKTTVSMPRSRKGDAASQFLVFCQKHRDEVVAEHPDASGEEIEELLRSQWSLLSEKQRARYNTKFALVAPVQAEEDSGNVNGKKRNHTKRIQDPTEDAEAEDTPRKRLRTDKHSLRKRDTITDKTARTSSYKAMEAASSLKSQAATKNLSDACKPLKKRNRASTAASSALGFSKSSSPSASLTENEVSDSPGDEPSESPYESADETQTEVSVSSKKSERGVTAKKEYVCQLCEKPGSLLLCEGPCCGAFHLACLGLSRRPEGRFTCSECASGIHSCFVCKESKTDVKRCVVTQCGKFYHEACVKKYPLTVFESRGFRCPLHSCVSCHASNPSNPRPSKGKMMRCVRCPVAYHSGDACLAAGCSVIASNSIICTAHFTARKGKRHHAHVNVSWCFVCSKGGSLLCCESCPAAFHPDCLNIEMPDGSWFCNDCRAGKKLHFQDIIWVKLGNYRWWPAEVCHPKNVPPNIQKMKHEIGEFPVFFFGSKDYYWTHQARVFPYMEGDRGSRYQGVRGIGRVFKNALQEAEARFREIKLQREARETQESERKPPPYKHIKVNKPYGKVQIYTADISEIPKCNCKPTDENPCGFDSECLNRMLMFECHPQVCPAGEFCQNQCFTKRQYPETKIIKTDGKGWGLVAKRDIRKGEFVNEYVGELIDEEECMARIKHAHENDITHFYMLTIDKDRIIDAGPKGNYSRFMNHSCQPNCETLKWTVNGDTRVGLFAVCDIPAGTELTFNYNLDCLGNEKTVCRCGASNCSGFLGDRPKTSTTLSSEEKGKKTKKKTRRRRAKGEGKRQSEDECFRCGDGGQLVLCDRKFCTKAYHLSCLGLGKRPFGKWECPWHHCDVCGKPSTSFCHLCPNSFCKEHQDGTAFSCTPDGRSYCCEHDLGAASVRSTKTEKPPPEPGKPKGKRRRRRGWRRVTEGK
Assay type: biochemical
The source made the active and inactive calls.
In this section we review reported AC50 values for a set of compounds.

Consider the worked cases shown below.
-- ask Given `O=C1c2cccc(Sc3ccccc3)c2C(=O)c2c(Sc3ccccc3)cccc21` , state its recorded AC50.
-- reply 5.27 µM (active)

-- ask Given `O=C(CCN1C(=O)/C(=C\c2ccco2)SC1=S)Nc1ccc(C(=O)O)c(O)c1` , state its recorded AC50.
-- reply 13.8 µM (active)

-- ask Given `O=C1C=C(c2c(O)ccc3ccccc23)c2ccccc2C1=O` , state its recorded AC50.
-- reply 1.7 µM (active)

-- ask Given `ClN=C1C=CC=CC1=NCl` , state its recorded AC50.
-- reply 4.62 µM (active)

Now let's try a different one.
-- ask Given `CN(C)c1cc(Cl)c2nonc2c1N` , state its recorded AC50.
-- reply 4.43 µM (active)
